test: In vitro cytotoxicity, MTT cell viability assay in HepG2 cells; type: cell-based; conditions: human, Cytotoxicity CC50
For each entry below, report its CC50 at 7 days value.

Quick check: CC50 at 7 days of Cc1cc(NC(=O)c2ccc(F)c(C(F)(F)C(=O)N[C@H]3CCOB3O)c2)ccc1F ?
> 30 µM

Continue with C[C@H](NC(=O)C(F)(F)c1cc(C(=O)Nc2ccc(F)c(Cl)c2)cn1C)C(F)(F)F
> 30 µM

Continue with O=C(Nc1ccnc(Cl)c1)c1ccc(F)c(C(F)(F)C(=O)N2[C@@H]3CC[C@H]2C[C@@H](O)C3)c1
< 5 µM

Continue with Cn1cc(C(=O)Nc2ccc(F)c(Cl)c2)cc1C(F)(F)C(=O)NOC(C)(C)C
> 30 µM

Continue with Cc1cc(NC(=O)c2csc(C(F)(F)C(=O)N3CCCC3)c2)ccc1F
> 30 µM

All figures here come from patent US11247965B2.
